Target: T1, Human CD137 ECD (human)
T1 construct: entry includes C-terminal His-tag and biotin acceptor peptide; also called human CD137 extracellular domain; 4-1BB
T1 sequence (chain, as listed by the source limits assumed): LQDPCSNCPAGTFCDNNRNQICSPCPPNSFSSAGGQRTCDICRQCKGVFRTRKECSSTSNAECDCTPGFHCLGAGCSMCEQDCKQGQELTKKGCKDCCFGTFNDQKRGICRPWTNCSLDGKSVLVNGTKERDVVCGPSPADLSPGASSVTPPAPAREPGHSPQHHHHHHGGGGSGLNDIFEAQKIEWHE
Experiment: Biacore SPR, vs parent H183/L072
measured.property: fold change of affinity (fold)
The response must be a number in fold with no trailing unit.

Example results:
binder="H183/L072 VL L33I (antibody, name in Kabat numbering, V domains shown, Dual-Ig) VH: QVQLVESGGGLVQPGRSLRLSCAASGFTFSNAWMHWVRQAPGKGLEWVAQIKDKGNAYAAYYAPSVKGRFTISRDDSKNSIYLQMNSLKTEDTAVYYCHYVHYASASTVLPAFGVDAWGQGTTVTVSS VL: DIVMTQSPLSLPVTPGEPASISCQASQELVHMNRNTYIHWYQQKPGQAPRLLIYKVSNRFPGVPDRFSGSGSGTDFTLKISRVEAEDVGVYYCAQGTSVPFTFGQGTKLEIK" test_value=0.1
binder="H183/L072 VL S93W (antibody, name in Kabat numbering, V domains shown, Dual-Ig) VH: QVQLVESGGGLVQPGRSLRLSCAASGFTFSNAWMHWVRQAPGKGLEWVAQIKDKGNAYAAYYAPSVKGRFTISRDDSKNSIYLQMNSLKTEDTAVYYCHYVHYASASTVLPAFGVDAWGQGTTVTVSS VL: DIVMTQSPLSLPVTPGEPASISCQASQELVHMNRNTYLHWYQQKPGQAPRLLIYKVSNRFPGVPDRFSGSGSGTDFTLKISRVEAEDVGVYYCAQGTWVPFTFGQGTKLEIK" test_value=1.2
binder="H183/L072 VL M27eG (antibody, name in Kabat numbering, V domains shown, Dual-Ig) VH: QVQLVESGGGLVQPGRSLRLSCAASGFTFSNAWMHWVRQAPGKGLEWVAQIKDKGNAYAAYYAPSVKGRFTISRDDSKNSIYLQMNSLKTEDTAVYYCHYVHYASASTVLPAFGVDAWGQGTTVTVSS VL: DIVMTQSPLSLPVTPGEPASISCQASQELVHGNRNTYLHWYQQKPGQAPRLLIYKVSNRFPGVPDRFSGSGSGTDFTLKISRVEAEDVGVYYCAQGTSVPFTFGQGTKLEIK" test_value=0.7
binder="H183/L072 VL R54I (antibody, name in Kabat numbering, V domains shown, Dual-Ig) VH: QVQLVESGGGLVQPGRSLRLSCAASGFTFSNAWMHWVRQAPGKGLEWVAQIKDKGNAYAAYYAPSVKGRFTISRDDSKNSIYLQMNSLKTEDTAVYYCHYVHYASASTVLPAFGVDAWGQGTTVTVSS VL: DIVMTQSPLSLPVTPGEPASISCQASQELVHMNRNTYLHWYQQKPGQAPRLLIYKVSNIFPGVPDRFSGSGSGTDFTLKISRVEAEDVGVYYCAQGTSVPFTFGQGTKLEIK" test_value=1

Then there is this binder:
Query block: Record request: fold change of affinity value, item H183/L072 VL N53Q (antibody, name in Kabat numbering, V domains shown, Dual-Ig) VH: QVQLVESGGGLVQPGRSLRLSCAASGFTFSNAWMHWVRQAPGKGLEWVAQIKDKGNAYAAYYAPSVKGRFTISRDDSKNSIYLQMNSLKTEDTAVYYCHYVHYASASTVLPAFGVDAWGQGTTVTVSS VL: DIVMTQSPLSLPVTPGEPASISCQASQELVHMNRNTYLHWYQQKPGQAPRLLIYKVSQRFPGVPDRFSGSGSGTDFTLKISRVEAEDVGVYYCAQGTSVPFTFGQGTKLEIK
Result block: 0.4
